B1: RAB40B (parent)
chain: YSLTTSSTHKRSSLRKVKLVRPPQ

- Variants of: B1
- assayOverview: protein stability index of a GFP-peptide fusion (GPS, HEK-293T) (PSI 1-6); higher = more stable;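 also: lentivirally expressed fusions sorted by FACS into six bins by GFP to DsRed ratio, PSI derived from sequencing read proportions per bin multiplied by bin number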
- runParameters: c terminus: a fixed tail appended
Values of protein stability index greater than or equal to 3 map to Yes; values below map to No.

Take a look at these entries with their results.
Hi, just wondering whether H9A shows protein stability index of 3 or higher. No

Given P22D , state whether its protein stability index is at least 3. Yes

Given V17L , state whether its protein stability index is at least 3. No

# check: protein stability index of S13Q is greater than or equal to 3 Yes

In plain terms: is recorded protein stability index at least 3 for K10T ? No

Next:
Decide: protein stability index of S2D >= 3? Yes

Does protein stability index meet or surpass 3 for S12L ? No

Answer whether protein stability index of V17P is greater than or equal to 3. Yes

Check this variant for protein stability index at or above 3: L14R Yes

Would you say R15H shows protein stability index at minimum 3? No

Textbook exercise: given the entry S2Y , state whether its protein stability index is greater than or equal to 3. No

Check the entry S6H : does protein stability index equal or exceed 3? Yes

Please indicate if the recorded protein stability index for S2T meets or exceeds 3. No

Does protein stability index meet or surpass 3 for L19H ? Yes

hey, is protein stability index for this one >= 3? R11P No

Check this variant for protein stability index at or above 3: P22V No

Check the entry T5K : does protein stability index equal or exceed 3? Yes

Hi, just wondering whether Q24H shows protein stability index of 3 or higher. Yes
